# Test system: RARg homodimer (NR concentration 270 nM)
# protocolSummary: PBM binding z-score (relative to random genomic background probes); higher = stronger binding; sequences stand for … in GC…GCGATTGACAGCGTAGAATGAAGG
Record form. Attribute: PBM binding z-score. Fill in for each entry.
Answer with a bare number; do not write a unit.

The reported PBM binding z-score value, RARg homodimer (NR concentration 270 nM), for `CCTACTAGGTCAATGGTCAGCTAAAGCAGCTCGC` reads 4.16

The reported PBM binding z-score value, RARg homodimer (NR concentration 270 nM), for `TCTCGTAGATCAACAGGAGGTTAAGAAAGATCGA` reads 0.145

The reported PBM binding z-score value, RARg homodimer (NR concentration 270 nM), for `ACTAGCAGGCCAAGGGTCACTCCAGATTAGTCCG` reads 3.48

The reported PBM binding z-score value, RARg homodimer (NR concentration 270 nM), for `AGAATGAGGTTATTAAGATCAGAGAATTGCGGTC` reads 0.933

The reported PBM binding z-score value, RARg homodimer (NR concentration 270 nM), for `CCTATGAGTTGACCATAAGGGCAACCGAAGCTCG` reads 1.09

The reported PBM binding z-score value, RARg homodimer (NR concentration 270 nM), for `ACCGAAAGGTCGAAGGTGAGTATACCCACCCGAA` reads 4.2

The reported PBM binding z-score value, RARg homodimer (NR concentration 270 nM), for `AGAACGAGGGCAATGAGTTTATAGCACGGGTGGC` reads 1.88

The reported PBM binding z-score value, RARg homodimer (NR concentration 270 nM), for `GCAGTCAGGTGAAACGCAGGTAACTCAGGGTGGC` reads 0.376

The reported PBM binding z-score value, RARg homodimer (NR concentration 270 nM), for `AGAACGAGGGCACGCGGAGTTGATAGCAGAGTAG` reads 2.41

The reported PBM binding z-score value, RARg homodimer (NR concentration 270 nM), for `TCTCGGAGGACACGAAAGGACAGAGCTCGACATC` reads 2.48

The reported PBM binding z-score value, RARg homodimer (NR concentration 270 nM), for `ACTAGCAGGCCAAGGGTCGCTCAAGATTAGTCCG` reads 0.872

The reported PBM binding z-score value, RARg homodimer (NR concentration 270 nM), for `CCTACTGGGCCATTCAGAGGTCATTTATCATATG` reads 2.73

###

# System: PPARg DBDmut:RXRa IVT, anti-PPARg (DBD mutation: PPARg1 K132A/R137A, NR concentration 270 nM, RXRa partner concentration 90 nM)
# protocolSummary: PBM binding z-score (relative to random genomic background probes); higher = stronger binding; sequences stand for … in GC…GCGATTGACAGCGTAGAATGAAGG
Hi, to clarify the labels: true (1) covers PBM binding z-score from 0.8 upward, false (0) covers anything below 0.8.

Q) Given the entry `ATATGTAGGTTTCATCCGGGTCATTCAGGCTATG` , answer whether its PBM binding z-score meets or surpasses 0.8.
A) true (1)

Q) Given the entry `CGTCCGAGGTCAGCAGGTCAGTGAAAGCGACGTG` , answer whether its PBM binding z-score meets or surpasses 0.8.
A) false (0)

Q) Given the entry `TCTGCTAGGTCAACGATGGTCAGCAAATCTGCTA` , answer whether its PBM binding z-score meets or surpasses 0.8.
A) true (1)

Q) Given the entry `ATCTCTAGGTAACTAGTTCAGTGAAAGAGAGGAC` , answer whether its PBM binding z-score meets or surpasses 0.8.
A) true (1)

Q) Given the entry `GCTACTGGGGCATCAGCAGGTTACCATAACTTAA` , answer whether its PBM binding z-score meets or surpasses 0.8.
A) false (0)

Q) Given the entry `ACTAGCAGGCCAAGTTTGGGTCACTCCAACAAAG` , answer whether its PBM binding z-score meets or surpasses 0.8.
A) false (0)

###

Record form. Attribute: PBM binding z-score. Fill in for each entry.
# Tested on: LXRb homodimer (NR concentration 270 nM)
# protocolSummary: PBM binding z-score (relative to random genomic background probes); higher = stronger binding; sequences stand for … in GC…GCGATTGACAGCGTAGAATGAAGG
Answer with a bare number; do not write a unit.

For record `CAAACTATGTCACAGAGGTCAAAGTCCGTGCGTA` the listed PBM binding z-score is 2.14

For record `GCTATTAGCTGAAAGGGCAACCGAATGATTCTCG` the listed PBM binding z-score is -0.619

For record `ACTAGTTGGCCAGCTGAGGTCACACACAATTCGG` the listed PBM binding z-score is -0.00517

For record `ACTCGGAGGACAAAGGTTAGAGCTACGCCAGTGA` the listed PBM binding z-score is -0.716

For record `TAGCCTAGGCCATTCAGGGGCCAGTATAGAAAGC` the listed PBM binding z-score is -0.52

For record `TCTGATAGGTCAACGATGGTCAGCTAATCTGCTA` the listed PBM binding z-score is 0.737

###

# System: RARa:RXR (NR concentration 270 nM, RXRa partner concentration 90 nM)
# protocolSummary: PBM binding z-score (relative to random genomic background probes); higher = stronger binding; sequences stand for … in GC…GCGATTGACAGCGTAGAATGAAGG
Hi, to clarify the labels: 1 covers PBM binding z-score from 0.6 upward, -1 covers anything below 0.6.

Q) Given the entry `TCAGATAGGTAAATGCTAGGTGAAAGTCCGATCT` , answer whether its PBM binding z-score meets or surpasses 0.6.
A) -1

Q) Given the entry `ATCGAAAGGACGTGAGGTGAGTATACAGAAAGGC` , answer whether its PBM binding z-score meets or surpasses 0.6.
A) -1

Q) Given the entry `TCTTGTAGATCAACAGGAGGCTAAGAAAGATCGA` , answer whether its PBM binding z-score meets or surpasses 0.6.
A) -1

Q) Given the entry `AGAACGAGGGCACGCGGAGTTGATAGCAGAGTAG` , answer whether its PBM binding z-score meets or surpasses 0.6.
A) 1

Q) Given the entry `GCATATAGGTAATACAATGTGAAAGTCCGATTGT` , answer whether its PBM binding z-score meets or surpasses 0.6.
A) -1

Q) Given the entry `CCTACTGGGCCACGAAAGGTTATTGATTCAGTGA` , answer whether its PBM binding z-score meets or surpasses 0.6.
A) 1

###

# Test system: RARg homodimer (NR concentration 270 nM)
# protocolSummary: PBM binding z-score (relative to random genomic background probes); higher = stronger binding; sequences stand for … in GC…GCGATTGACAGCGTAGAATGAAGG
Hi, to clarify the labels: TRUE covers PBM binding z-score from 0.7 upward, FALSE covers anything below 0.7.

Q) Given the entry `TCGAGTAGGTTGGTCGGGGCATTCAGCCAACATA` , answer whether its PBM binding z-score meets or surpasses 0.7.
A) FALSE

Q) Given the entry `ACAGACAGGTGAGTGAAGGTAACTCAACTGGACG` , answer whether its PBM binding z-score meets or surpasses 0.7.
A) FALSE

Q) Given the entry `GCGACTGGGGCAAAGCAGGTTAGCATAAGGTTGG` , answer whether its PBM binding z-score meets or surpasses 0.7.
A) FALSE

Q) Given the entry `ATCTCTAGGTAACCATGTTCAGTGAATGCCGAAC` , answer whether its PBM binding z-score meets or surpasses 0.7.
A) FALSE

Q) Given the entry `TCTAGCAGGCGAGAGGGTCACTCAAGAGGTACGG` , answer whether its PBM binding z-score meets or surpasses 0.7.
A) TRUE

Q) Given the entry `CCTCCAAGGTCAGCAGGTCAGTGAAAGCGACGTG` , answer whether its PBM binding z-score meets or surpasses 0.7.
A) TRUE

Q) Given the entry `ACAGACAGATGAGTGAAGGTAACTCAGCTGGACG` , answer whether its PBM binding z-score meets or surpasses 0.7.
A) FALSE

Q) Given the entry `ACTAGCAGGCCAAATTTGGGTCACTCAAACAAAG` , answer whether its PBM binding z-score meets or surpasses 0.7.
A) TRUE

Q) Given the entry `AGAACGAGGTCAATGAGTTGATAGCACGGGTGGC` , answer whether its PBM binding z-score meets or surpasses 0.7.
A) TRUE

Q) Given the entry `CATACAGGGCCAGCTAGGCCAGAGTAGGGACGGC` , answer whether its PBM binding z-score meets or surpasses 0.7.
A) FALSE

Q) Given the entry `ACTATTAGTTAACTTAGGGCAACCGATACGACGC` , answer whether its PBM binding z-score meets or surpasses 0.7.
A) TRUE

Q) Given the entry `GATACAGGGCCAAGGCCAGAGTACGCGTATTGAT` , answer whether its PBM binding z-score meets or surpasses 0.7.
A) FALSE

Q) Given the entry `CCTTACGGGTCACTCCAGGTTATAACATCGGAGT` , answer whether its PBM binding z-score meets or surpasses 0.7.
A) TRUE

Q) Given the entry `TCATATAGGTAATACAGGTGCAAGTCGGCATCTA` , answer whether its PBM binding z-score meets or surpasses 0.7.
A) FALSE

Q) Given the entry `CGAACTAGGGCATGAGTTGATAGCAAATGCCGAT` , answer whether its PBM binding z-score meets or surpasses 0.7.
A) TRUE

Q) Given the entry `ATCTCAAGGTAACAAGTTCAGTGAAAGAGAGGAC` , answer whether its PBM binding z-score meets or surpasses 0.7.
A) TRUE

Q) Given the entry `TCATATAAGTAAAGGTGAAAGTCGAACGATATGA` , answer whether its PBM binding z-score meets or surpasses 0.7.
A) TRUE

Q) Given the entry `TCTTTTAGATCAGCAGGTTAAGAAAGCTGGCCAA` , answer whether its PBM binding z-score meets or surpasses 0.7.
A) FALSE

Q) Given the entry `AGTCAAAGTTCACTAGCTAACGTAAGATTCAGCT` , answer whether its PBM binding z-score meets or surpasses 0.7.
A) TRUE

Q) Given the entry `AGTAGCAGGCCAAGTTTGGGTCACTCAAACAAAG` , answer whether its PBM binding z-score meets or surpasses 0.7.
A) TRUE

Q) Given the entry `CGTCAAAGTTCAAGGTAACGAAACAGAAAGCAGC` , answer whether its PBM binding z-score meets or surpasses 0.7.
A) TRUE

Q) Given the entry `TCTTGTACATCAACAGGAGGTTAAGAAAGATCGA` , answer whether its PBM binding z-score meets or surpasses 0.7.
A) FALSE

Q) Given the entry `CCTAGCAGCCCAGGGTCACTCAAGCATTTCGCTT` , answer whether its PBM binding z-score meets or surpasses 0.7.
A) TRUE

Q) Given the entry `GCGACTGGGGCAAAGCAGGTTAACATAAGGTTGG` , answer whether its PBM binding z-score meets or surpasses 0.7.
A) TRUE

Q) Given the entry `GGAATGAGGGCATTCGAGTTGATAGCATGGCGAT` , answer whether its PBM binding z-score meets or surpasses 0.7.
A) TRUE

Q) Given the entry `CCTACTGGGCCCTCAGGTCATTGATATCAACGTT` , answer whether its PBM binding z-score meets or surpasses 0.7.
A) TRUE
